B1: LINE1-full (parent)
chain: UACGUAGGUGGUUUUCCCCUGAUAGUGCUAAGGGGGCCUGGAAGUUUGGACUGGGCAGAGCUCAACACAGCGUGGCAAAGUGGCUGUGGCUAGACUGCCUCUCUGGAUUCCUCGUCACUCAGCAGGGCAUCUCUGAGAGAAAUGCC

Variants of: B1
experimental-details: self-cleavage, relative activity (ratio to wild type); higher = more cleavage; in vitro, sequencing; the parent is a self-cleaving ribozyme
assay-endpoint: self-cleavage
API doc: respond with a numeric literal and nothing else, no unit.

The following variants have reported results that may help.
change	self-cleavage
G93U G127C	0.19
A59G A121C	0.09
U45C A77G	2.62
A6C A124U	1.13
G49A A124G	0.55
A22G U115A	1.52

Problem: Please report the recorded self-cleavage for U73C G83A .
Result: 1.63

Problem: Lookup G80C U109C
Result: 1.27

Attribution: the RNAGym collection of RNA variant scans (doi:10.7554/elife.90254)
